The measured values listed here are drawn from patent US8759519B2.

Assay: Chemical stability after storage in open conditions (HPLC, visual inspection)
Format: physicochemical
Details: 40° C./75% RH, 4 weeks; hydrochloride
Protocol: Form I was stored in different open conditions for periods of 1, 4 and 8 weeks. These conditions are 40° C./75% RH, 50° C., RT/<5% RH, RT/56% RH, RT/75% RH and 0.3 da ICH light. The compounds were analyzed after storage by HPLC and by visual inspection. Form II was stored in different open conditions for periods of 1, 4 and 8 weeks. These conditions were 40° C./75% RH, 50° C., RT/<5% RH, RT/56% RH, RT/75% RH and 0.3 da ICH light.
Structures can show the parent of a compound that is named as a salt.
OBSERVATION TYPE: HPLC Sum of impurities (%)
Use % as the unit, but write only the number.

Cn1cc(CNCC2CCN(c3ncc(C(=O)NO)cn3)CC2)c2ccccc21 [Form I, hydrochloride] :: 3.13

Dear colleague, I am looking for the recorded HPLC Sum of impurities of the following molecule: Cn1cc(CNCC2CCN(c3ncc(C(=O)NO)cn3)CC2)c2ccccc21 [Form II, hydrochloride] 4.99

* * *

Assay: Chemical stability after storage in open conditions (HPLC, visual inspection)
Type: physicochemical
Settings: 50° C., 1 week; hydrochloride
Counter-ions that a name gives are not always drawn.
OBSERVATION TYPE: HPLC Sum of impurities (%)
Use % as the unit, but write only the number.

Cn1cc(CNCC2CCN(c3ncc(C(=O)NO)cn3)CC2)c2ccccc21 [Form I, hydrochloride] :: 3.19

Now look at this entry.
Dear colleague, I am looking for the recorded HPLC Sum of impurities of the following molecule: Cn1cc(CNCC2CCN(c3ncc(C(=O)NO)cn3)CC2)c2ccccc21 [Form II, hydrochloride] 4.96

* * *

Test: Aqueous solubility in solvents with different pH
Type: physicochemical
Conditions: aqueous buffer, 0.01N HCl (pH 2.0), 20° C., read-out: Solubility (mg/ml solution)
Counter-ions that a name gives are not always drawn.
OBSERVATION TYPE: solubility thermodynamic at 24 h (mg/mL)
Use mg/mL as the unit, but write only the number.

Dear colleague, I am looking for the recorded solubility thermodynamic at 24 h of the following molecule: Cn1cc(CNCC2CCN(c3ncc(C(=O)NO)cn3)CC2)c2ccccc21 [Form I, hydrochloride] 1.4

* * *

Assay: Crystallographic stability after storage in open conditions (TGA, DSC, XRPD, IR)
Assay type: physicochemical
Conditions: six weeks open, RT/75% RH
Counter-ions that a name gives are not always drawn.
OBSERVATION TYPE: TGA <170° C.
Quick note: number first, unit second.

Dear colleague, I am looking for the recorded TGA <170° C. of the following molecule: Cn1cc(CNCC2CCN(c3ncc(C(=O)NO)cn3)CC2)c2ccccc21 [Form II, hydrochloride] 0.3%

* * *

Assay: Chemical stability after storage in open conditions (HPLC, visual inspection)
Assay type: physicochemical
Conditions: RT/56% RH, 8 weeks; hydrochloride
Counter-ions that a name gives are not always drawn.
OBSERVATION TYPE: HPLC Sum of impurities (%)
Use % as the unit, but write only the number.

Dear colleague, I am looking for the recorded HPLC Sum of impurities of the following molecule: Cn1cc(CNCC2CCN(c3ncc(C(=O)NO)cn3)CC2)c2ccccc21 [Form II, hydrochloride] 4.94

Please do the same for Cn1cc(CNCC2CCN(c3ncc(C(=O)NO)cn3)CC2)c2ccccc21 [Form I, hydrochloride] as well. 3.15
